molecular target: somatostatin receptor (Rattus norvegicus); construct: endogenous in cells; assay: Inhibition of binding of [125I-Tyr11]somatostatin-14 to AR42J rat pancreatic tumor cell membranes; settings: inhibition constant; displacement of 0.5 nM [125I-Tyr11]somatostatin-14 from AR42J cell membranes, 25 min at 30° C; free peptides and [Re=O]-complexed peptides
Sequence (P30680 whole entry): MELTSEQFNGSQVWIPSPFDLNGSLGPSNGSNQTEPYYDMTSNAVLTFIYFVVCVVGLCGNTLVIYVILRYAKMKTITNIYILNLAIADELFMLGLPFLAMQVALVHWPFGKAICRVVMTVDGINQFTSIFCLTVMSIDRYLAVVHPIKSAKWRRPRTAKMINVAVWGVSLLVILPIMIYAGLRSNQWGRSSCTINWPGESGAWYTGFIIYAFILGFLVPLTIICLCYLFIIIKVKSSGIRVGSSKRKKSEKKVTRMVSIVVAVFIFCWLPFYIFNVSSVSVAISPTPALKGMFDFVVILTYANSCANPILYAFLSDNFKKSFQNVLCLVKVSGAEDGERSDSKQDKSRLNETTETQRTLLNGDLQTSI
Non-standard residues stand in square brackets, D forms with d. Residues, ends and D or L forms follow the SMILES beside them. *: point of attachment. DTPA = O=C(O)CN(CCN(CC(=O)O)CC(=O)O)CCN(CC(=O)O)CC(=O)*; Phe(4-Cl) = N[C@@H](Cc1ccc(Cl)cc1)C(=O)O; Acm = CC(=O)NC*
For each record, write down the corresponding pKi.
Schema: pKi number; meaning minus log10 of the concentration expressed in molar units.

Problem: What pKi value was documented for this compound, CC(=O)NCSC[C@H](NC(=O)CNC(=O)[C@H](CSCNC(C)=O)NC(=O)CNC(=O)CNC(=O)CNC(=O)[C@@H](NC(=O)[C@H](Cc1ccccc1)NC(=O)[C@@H](NC(=O)[C@H](CCCCN)NC(=O)[C@@H](Cc1c[nH]c2ccccc12)NC(=O)[C@H](Cc1ccc(O)cc1)NC(=O)[C@H](Cc1ccc(Cl)cc1)NC(=O)[C@H](N)Cc1ccccc1)[C@@H](C)O)[C@@H](C)O)C(N)=O [FD.Cpa.YWD KTFT.GGGCAcm GCAcm.amide] (H-[dF][Phe(4-Cl)]Y[dW]KTFTGGGC(Acm)GC(Acm)-NH2) ?
Solution: 8.62

Problem: Reported pKi, compound CC(=O)N[C@@H](CS)C(=O)NCC(=O)N[C@@H](CS)C(=O)N[C@H](Cc1ccccc1)C(=O)N[C@@H](Cc1ccc(Cl)cc1)C(=O)N[C@@H](Cc1ccc(O)cc1)C(=O)N[C@H](Cc1c[nH]c2ccccc12)C(=O)N[C@@H](CCCCN)C(=O)N[C@H](C(=O)N[C@@H](Cc1ccccc1)C(=O)N[C@H](C(N)=O)[C@@H](C)O)[C@@H](C)O [Ac.CGCFD.Cpa.YWD KTFT.amide] (Ac-CGC[dF][Phe(4-Cl)]Y[dW]KTFT-NH2) : ____
Solution: 8.36

Problem: GET /values?readout=pKi&item= C[C@@H](O)[C@H](NC(=O)[C@H](Cc1ccccc1)NC(=O)[C@@H](NC(=O)[C@H](CCCCN)NC(=O)[C@@H](Cc1c[nH]c2ccccc12)NC(=O)[C@H](Cc1ccc(O)cc1)NC(=O)[C@H](Cc1ccccc1)NC(=O)[C@@H](Cc1ccccc1)NC(=O)[C@H](CS)NC(=O)CNC(=O)[C@@H](N)CCCCNC(=O)CN(CCN(CCN(CC(=O)O)CC(=O)O)CC(=O)O)CC(=O)O)[C@@H](C)O)C(N)=O [[DTPA].(ε-K)GCFD.FYWD KTFT.amide] (H-K(DTPA)GC[dF]FY[dW]KTFT-NH2)
Solution: 8.48

Just for reference, patent US5620675A is where these values come from.
